MEASUREMENT TARGET: RARα (Homo sapiens)
Sequence (P10276 183-462 limits assumed): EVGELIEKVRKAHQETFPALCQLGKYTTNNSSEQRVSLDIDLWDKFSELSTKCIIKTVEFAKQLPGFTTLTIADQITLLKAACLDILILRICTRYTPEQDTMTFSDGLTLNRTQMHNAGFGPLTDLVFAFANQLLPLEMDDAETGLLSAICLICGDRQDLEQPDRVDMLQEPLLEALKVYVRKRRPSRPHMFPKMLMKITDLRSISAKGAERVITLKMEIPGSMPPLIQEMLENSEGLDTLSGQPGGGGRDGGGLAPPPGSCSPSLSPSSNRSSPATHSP
ASSAY REMARKS: Transactivation assay (luciferase reporter, crossed curves vs reference agonist, Schild regression)
RECORDED CONDITIONS: HeLa stable transfectants, ERE-βGlob-Luc-SV-Neo reporter and RARα ER-DBD-puro; 18 hours incubation; apparent Kd; read-out: RARα Kdapp
EXPERIMENTAL READOUT: Kd (nM)
Your answer is read as nM, so omit the unit and give the number.

Exercise: Consider the molecule shown here: CCN(CC)c1ccc(C(O)C#Cc2ccc(C(=O)O)cc2)cc1C(C)C (stereo not shown) What is its recorded Kd?
Key: 1000

Exercise: Now consider CCN(CC)c1ccc(C(O)C#Cc2ccc(C(=O)O)cc2)cc1C(C)(C)C (stereo not shown) .
Key: 625

Exercise: Similarly, CC(C)(C)c1cc(C(O)C#Cc2ccc(C(=O)O)cc2)ccc1N1CCCC1 (stereo not shown) ?
Key: 1000

Exercise: And CC(C)(C)c1cc(C(O)C#Cc2ccc(C(=O)O)cc2)ccc1N1CCCCC1 (stereo not shown) ?
Key: 4010
